Hi, quick share: literature IC50 data for Histone deacetylase 5 (Homo sapiens, UniProt Q9UQL6), several sources combined.

>  <compound>
Fc1ccc(C2(Nc3ncc(-c4nnc(C(F)F)o4)cn3)CC2)c(Cl)c1

>  <IC50>
> 30 µM

$$$$
>  <compound>
COc1ccc2c(c1)C(=O)N(CCCCCC(=O)NO)c1ccccc1S2(=O)=O

>  <IC50>
3.85 µM

$$$$
>  <compound>
CC(=O)Nc1ccc(C(=O)Nc2ccc(C)cc2N)cc1

>  <IC50>
> 33 µM

$$$$
>  <compound>
Nc1ccc(-c2cn(Cc3ccc(-c4nnc(C(F)F)o4)cn3)cn2)cn1

>  <IC50>
> 30 µM

$$$$
>  <compound>
O=C(Nc1cccc(-c2cn(Cc3ccc(-c4nnc(C(F)F)o4)cn3)nn2)c1)N1CCOCC1

>  <IC50>
> 30 µM

$$$$

# get_value(readout= IC50, system= Histone deacetylase 5 (Homo sapiens, UniProt Q9UQL6)) for "O=C(NO)c1ccc(NCc2csc3ccc(Br)cc23)cc1"
> 100 µM

// fetch Histone deacetylase 5 (Homo sapiens, UniProt Q9UQL6) IC50 for "COc1ccc2c(c1)C(=O)N(CCCCCC(=O)NO)c1ccccc1S2"
> 20 µM

For the record "Nc1ccc(-c2cn(Cc3ccc(-c4nnc(C(F)F)o4)cn3)nn2)cn1" , what value of IC50 is listed for Histone deacetylase 5 (Homo sapiens, UniProt Q9UQL6)?
> 30 µM

Observed IC50 on Histone deacetylase 5 (Homo sapiens, UniProt Q9UQL6) for "C[C@@H](Nc1ncc(-c2nnc(C(F)F)o2)cn1)c1ccc(F)cc1F" , please.
> 30 µM

Give Histone deacetylase 5 (Homo sapiens, UniProt Q9UQL6) IC50 for "CC(=O)Nc1ccc(C(=O)Nc2ccc(F)cc2N)cc1"
> 33 µM

GET /values?readout=IC50&system=Histone deacetylase 5 (Homo sapiens, UniProt Q9UQL6)&item= "Fc1ccc(C2(Nc3ncc(-c4nnc(C(F)F)o4)cn3)CC2)cc1"
> 30 µM

Missing value: IC50, Histone deacetylase 5 (Homo sapiens, UniProt Q9UQL6), entry "O=C(CCCCCCN(c1ccccn1)c1ccc2ccccc2n1)NO" . Fill in?
0.123 µM

Give Histone deacetylase 5 (Homo sapiens, UniProt Q9UQL6) IC50 for "Cn1c(N)nc2cc(-c3nnn(Cc4ccc(-c5nnc(C(F)F)o5)cc4)n3)ccc21"
> 30 µM

What is its IC50 for Histone deacetylase 5 (Homo sapiens, UniProt Q9UQL6)? Entry: "CCN(CC)S(=O)(=O)c1cccc(-c2nnc(Sc3ccc(C(=O)NO)cc3)n2C)c1"
0.325 µM

Return IC50 measured with Histone deacetylase 5 (Homo sapiens, UniProt Q9UQL6) given this compound: "Nc1nc2cc(-c3cn(Cc4ccc(-c5nnc(C(F)F)o5)cc4)nn3)ccc2[nH]1"
> 30 µM

Find the measured IC50: item CN(C(=O)CCCNc1cccc2c1C(=O)N(C1CCC(=O)NC1=O)C2=O)c1ccc(NC(=O)CCCCCCC(=O)NO)cc1 (stereo not drawn) , target or system Histone deacetylase 5 (Homo sapiens, UniProt Q9UQL6).
5.75 µM

Value wanted: IC50 (Histone deacetylase 5 (Homo sapiens, UniProt Q9UQL6)) of entry "Cc1cc(-c2nnc(Sc3ccc(C(=O)NO)cc3)n2C)nn1C"
0.559 µM

Give IC50 (Histone deacetylase 5 (Homo sapiens, UniProt Q9UQL6)) of the following compound: "COc1cc2cc(c1)C(=O)Nc1ccccc1NC(=O)[C@H](CCCCCC(=O)NO)OC/C=C\2"
1.66 µM

====

Collected set of pIC50 measured with Histone deacetylase 5 (Homo sapiens, UniProt Q9UQL6) across studies.
FYI, pIC50 means -log10 of a concentration in mol per litre.

Please review the entries below; each comes with its answer.
>  <structure_as_smiles>
O=C(/C=C/c1ccc(CN(CCF)CC23CC4CC(CC(C4)C2)C3)cc1)NO

>  <observed_property>
pIC50

>  <readout_value>
5.27

$$$$
>  <structure_as_smiles>
COc1cc2cc(c1)C(=O)Nc1ccccc1NC(=O)[C@@H](CCCCCC(=O)NO)OC/C=C\2

>  <observed_property>
pIC50

>  <readout_value>
5.87

$$$$

If you can, please state the reported pIC50 value of "Cn1c(Sc2c(F)cc(C(=O)NO)cc2F)nnc1-c1cccc2ccccc12" .
5.73

====

Published IC50 for Histone deacetylase 5 (Homo sapiens, UniProt Q9UQL6), assembled from different documents, is shown next.
Rule for this label: true means IC50 is less than 0.7 µM; false means IC50 is at least 0.7 µM.

Some solved cases for reference:
>  <structure_as_smiles>
Cc1ccc(NC(=O)CCCCCC(=O)N2CCN(c3ccccc3)CC2)cc1

>  <measured_target>
Histone deacetylase 5 (Homo sapiens, UniProt Q9UQL6)

>  <qualitative_label>
false

$$$$
>  <structure_as_smiles>
COc1ccc(C(=O)N[C@@H](Cc2cscn2)c2nc(Cc3ccc(C(=O)NO)cc3)no2)cc1OC

>  <measured_target>
Histone deacetylase 5 (Homo sapiens, UniProt Q9UQL6)

>  <qualitative_label>
false

$$$$
>  <structure_as_smiles>
O=C(/C=C/c1ccc(CNCC2CCCCC2)cc1)NO

>  <measured_target>
Histone deacetylase 5 (Homo sapiens, UniProt Q9UQL6)

>  <qualitative_label>
true

$$$$

Check if IC50 falls below 0.7 µM for "CN(c1ccccc1)S(=O)(=O)c1cccc(/C=C/C(=O)NO)c1" .
false
